Just for reference, patent EP1201238A1 is where these values come from.

- Tested on: Allodynia caused by PGF2α
- Test Summary: inhibitory effect on allodynia caused by intrathecal injection of PGF2α
- Assay type: in vivo, male ddY mice
- Condition Label: mixture of PGF2α (1µg/body) and compound (100ng/body) injected intrathecally, mice, touch-stimulus score 15min after administration
Where % of allodynia expression, Allodynia caused by PGF2α equals or exceeds 8%, the correct label is Met; where it does not, the label is Not met.

Determine whether this compound has % of allodynia expression, Allodynia caused by PGF2α no lower than 8%: CC1(C)[C@H]2C[C@H](NS(=O)(=O)Cc3ccccc3)[C@@H](C/C=C\CCCC(=O)O)[C@@H]1C2 [comparison compound 5, reference compound]
Met

Determine whether this compound has % of allodynia expression, Allodynia caused by PGF2α no lower than 8%: "O=C(O)CCC/C=C\[C@H]1[C@H]2CC[C@H](C2)[C@@H]1CNS(=O)(=O)c1ccccc1F"
Met

Determine whether this compound has % of allodynia expression, Allodynia caused by PGF2α no lower than 8%: "COc1ccc(S(=O)(=O)N[C@H]2C[C@H]3C[C@@H]([C@@H]2C/C=C\CCCC(=O)O)C3(C)C)cc1"
Met

Determine whether this compound has % of allodynia expression, Allodynia caused by PGF2α no lower than 8%: "O=C(O)CCC/C=C\[C@H]1[C@H]2CC[C@H](C2)[C@@H]1CNS(=O)(=O)c1ccc(F)c(F)c1"
Met

Determine whether this compound has % of allodynia expression, Allodynia caused by PGF2α no lower than 8%: "O=C(O)CCC/C=C\[C@H]1[C@@H]2CC[C@@H](C2)[C@@H]1CNS(=O)(=O)c1cc(F)ccc1F"
Not met

Determine whether this compound has % of allodynia expression, Allodynia caused by PGF2α no lower than 8%: "O=C(O)CCC/C=C\[C@H]1[C@H]2CC[C@H](C2)[C@@H]1CNS(=O)(=O)c1ccccc1I"
Met

Determine whether this compound has % of allodynia expression, Allodynia caused by PGF2α no lower than 8%: O=C(O)CCC/C=C\[C@H]1[C@H]2CC[C@H](C2)[C@@H]1CNS(=O)(=O)c1ccccc1Cl [comparison compound 1, reference compound]
Met

Determine whether this compound has % of allodynia expression, Allodynia caused by PGF2α no lower than 8%: "CC1(C)[C@H]2C[C@H](NS(=O)(=O)c3ccccc3)[C@@H](C/C=C\CCCC(=O)O)[C@@H]1C2"
Not met

Consider the additional compound presented here.
Determine whether this compound has % of allodynia expression, Allodynia caused by PGF2α no lower than 8%: O=C(O)CCC/C=C\C[C@H]1[C@@H]2CC[C@@H](C2)[C@@H]1NS(=O)(=O)c1ccccc1 [comparison compound 6, reference compound]
Met

----------
- Tested on: Allodynia caused by PGE2
- Test Summary: inhibitory effect on allodynia caused by intrathecal injection of PGE2
- Format: in vivo, male ddY mice
- Condition Label: mixture of PGE2 (10ng/body) and compound (10ng/body) injected intrathecally, mice, touch-stimulus score 5 min after administration; 100% = all subjects score 2
Measured % of allodynia expression, Allodynia caused by PGE2 accompanies every entry in the list below.
Note: unit % is implicit; provide only the numeric part.

Previously resolved entries follow.
GET /values?readout=% of allodynia expression, Allodynia caused by PGE2&item= "O=C(O)CCC/C=C\[C@H]1[C@H]2CC[C@H](C2)[C@@H]1CNS(=O)(=O)c1ccccc1F"
0.0

GET /values?readout=% of allodynia expression, Allodynia caused by PGE2&item= O=C(O)CCC/C=C\C[C@H]1[C@@H]2CC[C@@H](C2)[C@@H]1NS(=O)(=O)c1ccccc1 [comparison compound 6, reference compound]
90.0

GET /values?readout=% of allodynia expression, Allodynia caused by PGE2&item= "COc1ccc(S(=O)(=O)N[C@H]2C[C@H]3C[C@@H]([C@@H]2C/C=C\CCCC(=O)O)C3(C)C)cc1"
8.3

***
GET /values?readout=% of allodynia expression, Allodynia caused by PGE2&item= CC1(C)[C@H]2C[C@H](NS(=O)(=O)Cc3ccccc3)[C@@H](C/C=C\CCCC(=O)O)[C@@H]1C2 [comparison compound 5, reference compound]
83.3
